- Test system: NCI/ADR-RES
- Assay info: NCI tumour cell line growth inhibition, 48 h
Calls of active or inactive are those of the source. No stated cut-off is given here; in the data, active = GI50 up to about 1.1 µM and inactive = higher.
Please provide measured GI50 for the entries that follow.

These recorded examples may help you get a feel for the data.
Compound	Result
Cc1oc2nc(N(C)C)nc(Cl)c2c1C	> 100 µM (inactive)
O=S(=O)(Nc1nc2ccccc2nc1Nc1ccc2ccccc2c1)c1ccccc1	5.73 µM (inactive)
COc1cc2c(c3nc4ccccc4nc13)-c1ccc(SC)c(=O)cc1[C@@H](NC(C)=O)CC2	6.9 µM (inactive)
O=C(O)C1NCCc2c1[nH]c1ccccc21 (stereo unspecified)	> 10 µM (inactive)
C[N+]1(C)C2Cc3ccccc3C1Cc1ccccc12	> 100 µM (inactive)

Please look at the items below and tell me GI50 for each one, in order.
1. CCOC(=O)COc1cc(-c2ccccc2F)nc2cc3c(cc12)OCO3
2. CC(C)C[S+]1C2=C(CC(C)(C)CC2=O)[N-]c2ccccc21 (stereo unspecified)
3. OCCCNCc1ccncc1
4. CCOC(=O)c1c(N2CCCC2)ncn(-c2ccccc2)c1=S
5. Brc1ccc(/N=N/N2CCCCC2)cc1
6. CC1OC(OC2C(O[C@H]3CC[C@@]4(C)C(=CC[C@H]5[C@@H]6C[C@@H]7O[C@]8(CC[C@@H](CO)CO8)[C@@H](C)[C@@H]7[C@@]6(C)CC[C@@H]54)C3)OC(CO)C(O)C2OC2OC(CO)C(O)C(O)C2O)C(O)C(O)C1O (stereo partly specified)

["> 100 µM (inactive)", "> 100 µM (inactive)", "> 100 µM (inactive)", "> 100 µM (inactive)", "51.3 µM (inactive)", "1.97 µM (inactive)"]

Please look at the items below and tell me GI50 for each one, in order.
1. Cc1c2cnccc2c(C)c2c1c1ccccc1n2CCCN
2. CC1CN=C(Nc2ccccc2)S1 (stereo unspecified)
3. COC1=C(N)C(=O)c2nc(-c3nc(C(=O)O)c(C)c(-c4ccc(OC)c(OC)c4O)c3N)ccc2C1=O [STREPTONIGRIN]

0.299 µM (active)
> 100 µM (inactive)
0.00893 µM (active)

Please look at the items below and tell me GI50 for each one, in order.
1. CCOC(=O)Oc1ccc2c(c1)c(=O)c1c(NCCN(CC)CC)ccc3nnn2c31
2. CC(Cc1ccc(Cl)cc1Cl)NO (stereo unspecified)
3. CSc1nc(SC)c2c(C)cn(COCCOC(=O)c3ccccc3)c2n1
4. Oc1ccc(/C=N/N=c2\[nH][nH]/c(=N\N=C\c3ccc(O)cc3O)c3ccccc23)c(O)c1

["2.39 µM (inactive)", "> 100 µM (inactive)", "> 100 µM (inactive)", "0.427 µM (active)"]

Please look at the items below and tell me GI50 for each one, in order.
1. COc1cc(Nc2cnc3cc(F)c(F)cc3n2)cc(OC)c1OC
2. CC(C)(C)OC(=O)NC(Cc1ccc([N+](=O)[O-])cc1)C(=O)NC(CCCCNC(=O)OCc1ccccc1)C(=O)ON1C(=O)CCC1=O (stereo unspecified)
3. Clc1ccc(C(c2ccc(Cl)cc2)N2CCNCC2)cc1

["> 100 µM (inactive)", "> 100 µM (inactive)", "3.1 µM (inactive)"]
